- MEASUREMENT NOTES: Stat Signaling Pathway (AID 446);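 note: ME-180 cervical cancer cells given 40 pM IL-6 alongside compound; SIE-controlled beta-lactamase reporter measured as 460/530 nm FRET emission ratio; % is set by controls: 0 for no effect and ±100 for the full control effect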
- ASSAY SETUP: ME-180 (cervical carcinoma) SIE beta-lactamase reporter, IL-6 stimulated, 5 h; at 7.69 µM (top of the series) unless noted
Inconclusive results are not listed.
Here the recorded activity, negative = inhibition is given for each entry.
QUANTITY KIND: activity, negative = inhibition (%)

>>> print(df.to_string())
                            substance_smiles                    quantity_kind  assay_result
 0  O=C(c1ccncc1)N1CCC2(CC1)CN(c1ccc(-c3ccccc3)cc1)C2  activity, negative = inhibition         -19.8
 1          COc1ccccc1-c1cncnc1NCc1cccc(C)c1  activity, negative = inhibition         -6.93
 2          N#Cc1cccc(-c2cc(-n3ccnc3)ncn2)c1  activity, negative = inhibition          10.7
 3  Cc1noc(C)c1-c1nc(N(C)Cc2ccco2)c2ccccc2n1  activity, negative = inhibition         -25.7
 4  Cc1noc(C)c1C(=O)N1CCC2(CC1)CCN(c1ncccn1)CC2  activity, negative = inhibition          3.32
 5     Cc1ccccc1-c1ccc2ncnc(N3CCN(C)CC3)c2c1  activity, negative = inhibition         -2.42
 6                  CCNc1ncc2ncc(=O)n(C)c2n1  activity, negative = inhibition         -6.09
 7  COc1cccc(Cn2c(=O)c(C)nc3cnc(N(C)C)nc32)c1  activity, negative = inhibition         -11.2
 8    Cn1cc(-c2nc3cncnc3n(CCN)c2=O)c2ccccc21  activity, negative = inhibition         0.835
 9   COc1ccccc1CNc1cc(-c2ccccc2C(F)(F)F)ncn1  activity, negative = inhibition          9.59
10    CS(=O)(=O)Nc1cccc(-c2cncnc2-n2ccnc2)c1  activity, negative = inhibition          14.6
11  Cc1noc(C)c1C(=O)N1CCC2(CCN(Cc3nccs3)CC2)CC1  activity, negative = inhibition          11.5
